Assay: Inhibition of bovine thymus p56-LCK protein tyrosine kinase activity
Design: species or system Bos taurus

[
  {
    "compound": "O=c1c(O)c(-c2ccccc2O)oc2cc(O)cc(O)c12",
    "IC50": "60 µg/mL"
  },
  {
    "compound": "O=c1c(O)c(-c2ccc(O)c(O)c2)oc2cc(O)cc(O)c12",
    "IC50": "8 µg/mL"
  },
  {
    "compound": "O=c1c(O)c(-c2ccc(O)cc2)oc2cc(O)ccc12",
    "IC50": "5 µg/mL"
  },
  {
    "compound": "O=c1c(O)c(-c2cc(O)c(O)c(O)c2)oc2cc(O)cc(O)c12",
    "IC50": "10 µg/mL"
  },
  {
    "compound": "O=c1cc(-c2ccc(O)cc2)oc2cc(O)cc(O)c12",
    "IC50": "4 µg/mL"
  },
  {
    "compound": "O=c1c(O[C@H]2OC[C@@H](O)[C@@H](O)[C@@H]2O)c(-c2ccc(O)cc2)oc2cc(O)cc(O)c12",
    "IC50": "200 µg/mL"
  },
  {
    "compound": "COc1ccc(-c2oc3cc(O)cc(O)c3c(=O)c2O)cc1 [KAEMPFERIDE]",
    "IC50": "30 µg/mL"
  },
  {
    "compound": "O=c1cc(-c2ccc(O)c(O)c2)oc2cc(O)cc(O)c12",
    "IC50": "4 µg/mL"
  },
  {
    "compound": "Cc1cc(O)c2c(c1)C(=O)c1cc(O)cc(O)c1C2=O",
    "IC50": "10 µg/mL"
  },
  {
    "compound": "C[C@H]1O[C@H](Oc2c(-c3ccc(O)cc3)oc3cc(O)cc(O)c3c2=O)[C@@H](O)[C@@H](O)[C@@H]1O [KAEMPFEROL-3-O-RHAMNOSIDE]",
    "IC50": "400 µg/mL"
  },
  {
    "compound": "O=c1c(O)c(-c2ccc(O)cc2)oc2cc(O)cc(O)c12",
    "IC50": "8 µg/mL"
  },
  {
    "compound": "O=c1c(O)c(-c2ccc(O)cc2O)oc2cc(O)cc(O)c12",
    "IC50": "50 µg/mL"
  },
  {
    "compound": "O=c1c(O)c(-c2ccccc2)oc2cc(O)cc(O)c12",
    "IC50": "30 µg/mL"
  }
]
